testTarget: Y2 receptors (Homo sapiens)
Construct: endogenous in cells; host or cells: KAN-Ts cells (membranes)
Sequence (P49146 1-381): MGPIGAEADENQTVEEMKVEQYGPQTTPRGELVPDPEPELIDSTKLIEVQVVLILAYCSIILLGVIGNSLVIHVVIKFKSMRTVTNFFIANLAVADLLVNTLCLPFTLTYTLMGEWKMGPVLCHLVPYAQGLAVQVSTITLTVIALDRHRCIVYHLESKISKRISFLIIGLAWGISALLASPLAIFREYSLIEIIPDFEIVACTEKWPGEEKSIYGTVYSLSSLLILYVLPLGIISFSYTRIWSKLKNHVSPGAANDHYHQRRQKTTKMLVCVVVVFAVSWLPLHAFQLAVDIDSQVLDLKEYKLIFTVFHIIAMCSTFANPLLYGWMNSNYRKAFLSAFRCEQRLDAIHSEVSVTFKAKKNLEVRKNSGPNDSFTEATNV
testDetails: Radioligand binding assay ([125I]PYY, KAN-Ts cell membranes)
runParameters: Table 1, [125I]PYY 80 pM, average of results, read-out: IC50
Note to self: IC50 under 800 nM means y, ties and anything higher get n.

> print(dat)
                                   molecule                   testtarget  classlabel
1  CCN(CC)C(=O)C(c1ccccc1)C1CCN(c2ccc(NC(=O)c3cccnc3SC)cc2F)CC1 (stereo not shown) [Example 141]  Y2 receptors (Homo sapiens)           y

Would you kindly look at the next entry?
Just wondering, is IC50 of COC(=O)C(c1ccccc1)N1CCN(c2ccc(NC(=O)c3ccccc3C(C)C)cc2F)CC1 (stereo not shown) [Example 64] below 800 nM?
n

###

testTarget: Y2 receptors (Homo sapiens)
Construct: endogenous in cells; host or cells: KAN-Ts cells (membranes)
testDetails: Radioligand binding assay ([125I]PYY, KAN-Ts cell membranes)
runParameters: Table 1, [125I]PYY 80 pM, average of results, read-out: IC50
compounds and their reported pIC50
API: returns pIC50 as number; meaning -log10 of concentration in mol/L.

Check out these entries, answers already filled in.
> print(dat)
                                   compound  measurementlabel  readoutvalue
1  CCC(CC)C(=O)Nc1ccc(N2CCN(C(C(=O)OC)c3ccccc3)CC2)c(F)c1 (stereo not shown)             pIC50          6.88
2  CCNC(=O)C(c1ccccc1)N1CCN(c2ccc(NC(=O)C3CCN3C3CCCCC3)cc2F)CC1 (stereo not shown)             pIC50          5.05
3  CCCCC(CC)C(=O)Nc1ccc(N2CCN(C(C(=O)OC)c3ccccc3)CC2)cc1 (stereo not shown)             pIC50          6.40

Form: compound = COC(=O)C(c1ccccc1)N1CCN(c2ccc(NC(=O)c3ccccc3C)cc2F)CC1 (stereo not shown) ; pIC50 = 5.89

The reported pIC50 of the compound COC(=O)C(c1ccccc1)N1CCN(c2ccc(NC(=O)c3ccsc3)cc2)CC1 (stereo not shown) was 5.60

Reported pIC50 of CCN(CC)C(=O)C(c1ccccc1)N1CCN(c2ccc(NC(=O)Nc3c(C)noc3C)cc2F)CC1 (stereo not shown) : 7.80

Notebook: CCNC(=O)C(c1ccccc1)N1CCN(c2ccc(NC(=O)c3cccnc3Br)cc2F)CC1 (stereo not shown) , pIC50 read as 6.05

Consider CCC(CC)C(=O)Nc1ccc(N2CCN(C(C(=O)OC)c3cccc(Cl)c3)CC2)c(F)c1 (stereo not shown) . Its measured pIC50 is 7.25

CCNC(=O)C(c1ccccc1)C1CCN(c2ccc(NC(=O)C3CCCC3)cc2C#N)CC1 (stereo not shown) has a reported pIC50 of 7.40

Short answer for CCNC(=O)C(c1ccccc1)N1CCN(c2ccc(NC(=O)C(CC)CC)c(F)c2)CC1 (stereo not shown) : pIC50 was 5.32

Recorded pIC50 (compound CCNC(=O)C(c1ccccc1)C1CCN(c2ccc(C(=O)NC(CC)CC)cc2F)CC1 (stereo not shown) ): 5.00
